Reference source for all entries: patent US4369120A

Experiment: Sealed tube test of stability of dyes in refrigerant/refrigeration oil with metal coupons
Assay type: physicochemical
Conditions: 350° F., Table I dyes
attribute_measured: stability in the sealed tube test (in words)

Look over these answered cases.
CCCCOc1ccc(N(C)c2ccc(N(C)c3ccc(OCCCC)cc3)c3c2C(=O)c2ccccc2C3=O)cc1 [Dye No. 20-12, 1,4-Bis(N--methyl-4-n-butoxyanilino)]; very unstable
O=C1c2ccccc2C(=O)c2c(Nc3ccccc3C(F)(F)F)ccc(Nc3ccccc3C(F)(F)F)c21 [Dye No. 23-24, 1,4-Bis(2-trifluoro-methylanilino)]; very unstable
CCCCc1ccc(Nc2cc(C)c(Nc3ccc(CCCC)cc3)c3c2C(=O)c2ccccc2C3=O)cc1 [Dye No. 22-16, 1,4-Bis(4-n-butylanilino)-2-methyl]; very unstable
CCOc1ccc(N(C)c2ccc(N(C)c3ccc(OCC)cc3)c3c2C(=O)c2ccccc2C3=O)cc1 [Dye No. 19-9, 1,4-Bis(N--methyl-4-ethoxyanilino)]; very unstable
CCCCc1ccc(N(C)c2ccc(N(C)c3ccc(CCCC)cc3)c3c2C(=O)c2ccccc2C3=O)cc1 [Dye No. 18-6]; very unstable

Value sought for every listed molecule: stability in the sealed tube test (in words).
1. CN(c1ccccc1)c1ccc(N(C)c2ccccc2)c2c1C(=O)c1ccccc1C2=O [Dye No. 16-10, 1,4-Bis(N--methylanilino)]
2. CCN(c1ccccc1)c1ccc(N(CC)c2ccccc2)c2c1C(=O)c1ccccc1C2=O [Dye No. 17-14, 1,4-Bis(N--ethylanilino)]
3. CC(C)(C)CNc1ccc(NCC(C)(C)C)c2c1C(=O)c1ccccc1C2=O [Dye No. 15-13, 1,4-Bis(neopentylamino)]

Response:
["very unstable", "very unstable", "very unstable"]
